System: HepG2
run.description: GSK_TCMDC: Percent inhibition of human HepG2 cell line. Test compounds present at 10uM.
Format: functional
Quick reference for Inhibition among some compounds
Express your answer in %, writing the number without its unit.

A selection of reference data follows.
>>> data_value("CC(C)CCCC(C)(C)NC[C@@H](O)[C@H](Cc1ccccc1)NC(=O)c1cccc(CCC2CC2)c1")
100
>>> data_value("CC(C)C[C@H](NC(=O)c1cc2ccccc2s1)C(=O)N[C@H]1CCN(Cc2ccc(OCCN3CCNCC3)c3ccccc23)C1.O=C(O)C(F)(F)F")
43
>>> data_value("O=C(Nc1ccccc1)c1nn(CCCN2CCC(N3CCCC3)CC2)cc1-c1ccc(Cl)c(Cl)c1")
31
>>> data_value("CCCNC(=O)Nc1cc2cc(-c3cccc(CN4CCCCC4)c3)ccc2n2c(C)nnc12")
60
>>> data_value("CN(C)CC(=O)Nc1ccc(Nc2nccc(NCC(O)c3ccccc3)n2)cc1 (stereo not drawn)")
0

Requested read-out: Inhibition. Entry: "O=C(/C=C/c1ccc(Cl)c(Cl)c1)NCCCCCN1CCC(CCNC(=O)/C=C/c2cc(C(F)(F)F)ccc2F)CC1"
25

# query: Inhibition of entry "Cc1cc(-c2ccc(CNC3Cc4ccccc4C3)cc2)ccc1S(=O)(=O)NCCN1CCCC1.O=C(O)C(F)(F)F"
99

Please report the recorded Inhibition for "COc1ccc2nccc([C@@H](O)CN3CCC(NCc4cc5oc(=O)[nH]c5cc4F)CC3)c2c1.O=C(O)C(=O)O" .
0

Which Inhibition value is on record for "COc1cc(Cl)c(C)cc1-n1cc(C(=O)c2cc(Br)ccc2O)cc(C#N)c1=O" ?
3

Which Inhibition reading was recorded for the compound Cc1nc(-c2cccc(Nc3nccc(NCC(O)c4cccc(F)c4)n3)c2)cs1 (stereo not drawn) ?
39

====

Tested on: Plasmodium falciparum
run.description: GSK_TCMDC: Inhibition of Plasmodium falciparum Dd2 in whole red blood cells, using parasite LDH activity as an index of growth. Test compounds present at 2uM
Format: functional
Note to self: Inhibition under 30% means met, ties and anything higher get not met.

Consider the molecule "N#Cc1cncc(-c2nc3c(N4CCC(N5CCCC5)CC4)cccc3n2CCNCc2ccccc2)c1.O=C(O)C(F)(F)F" . Is its Inhibition strictly less than 30%?
not met

Dear colleague, could you confirm whether Inhibition of COc1ccc(C2(CNCC(O)c3cccc([N+](=O)[O-])c3)CCCCC2)cc1OC.Cl (centres undefined) falls below 30%? Thanks.
not met

is_below(Inhibition, 30%) for CC(C)N1CCN(C(CN2CCN(CCCOc3ccccc3-c3ccccc3)CC2)c2ccc(F)cc2)CC1.Cl (centres undefined) ?
not met

Please determine if "Cc1nnc(-c2ccc3ccccc3c2)c2cn(-c3cccc([N+](=O)[O-])c3)nc12" is below 30% in terms of Inhibition.
not met

Please indicate whether the reported Inhibition of "Cc1c(Cc2ccc(F)cc2)c(Cl)nc2nc(N)nc(N)c12" is strictly below 30%.
met

====

System: HepG2
run.description: GSK_TCMDC: Percent inhibition of human HepG2 cell line. Test compounds present at 10uM.
Format: functional
Entries annotated with measured Inhibition
Answer with a number only, understood to be in %.

These recorded examples may help you get a feel for the data.
>>> data_value("CSCCC(C(=O)O)N1C(=O)c2ccccc2C1=O (centres undefined)")
0
>>> data_value("CC(C)(C)Nc1cc(C(=O)N[C@@H](Cc2ccccc2)[C@H](O)CNC2CCOCC2)cc(N2CCCCS2(=O)=O)c1")
0
>>> data_value("CCN1CCC(N2CCC(C(=O)Nc3cccc(-c4cccc(Cl)c4)c3)CC2)CC1")
54

Request the reported Inhibition associated with O=C1c2cc(I)ccc2SC1c1ccccc1 (centres undefined)
0

What does the record list as Inhibition for O=C(N[C@@H](CC1CCCCC1)C(=O)NC1CCCc2ccccc21)c1ccc(O)c(-c2cccc(C(F)(F)F)c2)c1 (some centres undefined) ?
0

====

Test system: Plasmodium falciparum
run.description: GSK_TCMDC: Inhibition of Plasmodium falciparum 3D7 in whole red blood cells, using parasite LDH activity as an index of growth. Test compounds present at 2uM
Type: functional
attribute.measured: Inhibition
Just so you know, I need the unit written after the number.

>>> data_value("COc1ccc2nccc([C@@H](O)CN3CCC(NCc4cc5ccccc5[nH]4)CC3)c2c1.CS(=O)(=O)O")
"92%"

What does the record list as Inhibition for "Cc1cccc(C(=O)Nc2ccnc(N3CCC(N(C)Cc4cccc(C#N)c4)CC3)c2)c1.O=C(O)C(F)(F)F" ?
100%

What Inhibition value was documented for this compound, COc1cc(O)c2c(=O)c(OC)c(-c3cccc(Cl)c3OC3O[C@H](CO)[C@@H](O)[C@H](O)[C@H]3O)oc2c1OC (stereo not given in full) ?
100%

Find the recorded Inhibition belonging to "Cc1ccc2[nH]c(C)cc(=NN=Cc3ccc(Cl)cc3)c2c1" and report it.
100%

Need Inhibition, item "Cl.N=C(N)NN=Cc1c2ccccc2c(Cl)c2c(Cl)cccc12"
91%

====

# Inhibition listing for each entry below
System: HepG2
run.description: GSK_TCMDC: Percent inhibition of human HepG2 cell line. Test compounds present at 10uM.
Type: functional
Unit % implied. Number only.

Some solved entries appear below for comparison.
>>> data_value("CCOC(=O)/C(=N\\OC(C)(C)C(=O)NCc1ccc(O)c(O)c1)c1csc(NC(c2ccccc2)(c2ccccc2)c2ccccc2)n1")
13
>>> data_value("NCCNc1ccc([N+](=O)[O-])cc1C(=O)Nc1cccc(C(F)(F)F)c1")
1
>>> data_value("Cn1nc(-c2cccc(CNCc3ccccc3)c2)c2cnc(NC3CCCC3)nc21")
5
>>> data_value("COc1ccc(CCNC(=O)c2ccc(-n3cc(NC(=O)c4cccnc4)cn3)cc2)cc1OC")
17

Given the entry "Cc1nc(-c2nc(N3CCC(O)CC3)ncc2-c2ccsc2)sc1C" , report its measured Inhibition.
6

Which Inhibition is reported for this compound? COc1ccc(Br)cc1C1Nc2ccc3ccccc3c2C2=C1C(=O)CC(c1ccccc1)C2 (stereo unspecified)
25

====

Tested on: Plasmodium falciparum
run.description: GSK_TCMDC: Inhibition of Plasmodium falciparum 3D7 in whole red blood cells, using parasite LDH activity as an index of growth. Test compounds present at 2uM
Type: functional
attribute.measured: Inhibition

>>> data_value("COc1ccc(-c2ccccc2CNC2Cc3ccccc3C2)cc1S(=O)(=O)NCCN1CCCC1.O=C(O)C(F)(F)F")
"96%"
>>> data_value("Cc1cccc(C(=O)Nc2ccc(N3CCCN(Cc4cccc(O)c4)CC3)cc2)c1.O=C(O)C(F)(F)F")
"92%"
>>> data_value("COc1ccc2nccc([C@@H](O)CN3CCC(NCc4cnc5c(c4)NC(=O)CS5)C(F)C3)c2c1.Cl (some centres not stated)")
"90%"
>>> data_value("NS(=O)(=O)c1cccc(N/C=C2\\C(=O)Nc3ccc(S(=O)(=O)Cc4c(Cl)cccc4Cl)cc32)c1")
"92%"
>>> data_value("OC(CNCc1cccc(Oc2ccc(Cl)cc2)c1)c1cc(C(F)(F)F)cc(C(F)(F)F)c1 (configuration not stated)")
"99%"
>>> data_value("Clc1ccc(CNCC2CCN(CC3CCCCC3)CC2)cc1Cl")
"92%"

// returns reported Inhibition for input "CN(C)S(=O)(=O)c1ccc(N2CCN(CCC3(c4cccc(F)c4)CCN(C(=O)C(C)(C)C)CC3)CC2)c2nonc12"
91%

Given the entry "CNCCNCc1cccc(-c2ccc(-c3nc4cc(C(F)(F)F)ccc4[nH]3)cc2)c1.O=C(O)C(F)(F)F" , report its measured Inhibition.
100%

Find the recorded Inhibition belonging to "CCNc1cc(C)nc(Nc2ccc(NS(=O)(=O)c3ccccc3)cc2)n1" and report it.
100%

Which Inhibition is reported for this compound? "Cc1cc(N2CCCC2)nc(Nc2ccc(NC(=O)c3ccccc3F)cc2)n1"
98%

# input compound: COc1cc2c(c(Cl)c1OC)CCN(Cc1ccccc1)CC2c1ccc(NC(=O)C(F)(F)F)cc1 (configuration not stated) ; wanted: its Inhibition
85%

Consider the compound "CC(C)NCc1cccc(-c2ccc(NS(=O)(=O)c3cccc4cccnc34)cc2)c1.O=C(O)C(F)(F)F" and give its measured Inhibition.
90%

Fill in the blank: the reported Inhibition of "CC1(C)N=C(N)N=C(N)N1c1cccc(I)c1.Cl" is ____.
95%

# Inhibition lookup, item "CCN(CCCN1CCCC1)c1cc(C)nc(Nc2ccc(Cl)cc2)n1.O=C(O)C(=O)O"
100%

// returns reported Inhibition for input "CCN(CC)CCN(Cc1ccc(-c2ccc(C(F)(F)F)cc2)cc1)C(=O)Cn1cc(CCCc2cccc(F)c2F)c(=O)c2ccccc21.O=C(O)C(O)C(O)C(=O)O"
89%

Reported Inhibition for "O=C(Nc1ccnc(-c2cccnc2)n1)c1cc(C(F)(F)F)cc(C(F)(F)F)c1" : what is it?
95%

For Cc1cc(NCC2CCN(CC3CCCCC3)C2)nc(Nc2ccc(Cl)cc2)n1 (configuration not stated) , what is its reported Inhibition?
100%

// Inhibition lookup, key: "CCOc1ccccc1NC(=O)Nc1ccc2c(c1)CCN(C1CCC1)CC2.Cl"
88%

What value of Inhibition has been recorded for this entry: "CC1(C)CCCN(Cc2c(O)ccc3c(O)c(-c4nc5ccccc5s4)c(=N)oc23)C1"
100%

Inhibition lookup needed for "CC(C)CNCc1cccc(-c2cccc(CN(CCCN3CCN(C)CC3)C(=O)Nc3ccccc3)c2)c1.O=C(O)C(F)(F)F" , thanks.
95%

Could you tell me which Inhibition is on file for "Cc1cccc2nc(-c3ccc(-c4ccc(CN5CCN(CCC#N)CC5)cc4)cc3)[nH]c12.O=C(O)C(F)(F)F" ?
91%

So what's the measured Inhibition for this one? "CCOc1c(C)cc(C(F)(F)F)cc1CNCCCNc1cc(=O)c2ccccc2[nH]1.Cl"
97%

Quick one: Inhibition for "O=C(c1cncc(-c2ccccc2)c1)N(Cc1cncn1Cc1ccccc1F)CC1CC1" ?
100%

Please give the measured Inhibition for this compound: "O=C(Nc1ccc([N+](=O)[O-])cc1)c1nn(-c2ccccc2)cc1/N=C/c1cccc(O)c1"
98%

Which Inhibition is listed for "Br.c1cc(Nc2nc(-c3ccc(-c4csc(Nc5ccncc5)n4)cc3)cs2)ccn1" ?
100%

Give the measured Inhibition of "CCOc1ccc2[nH]c(C)cc(=NN=Cc3ccncc3)c2c1" .
99%
